As shown below, each of these compounds has a reported pIC50 value.
experimental_target: full-length human PKCι (Homo sapiens)
Construct: Recombinant, full-length human PKCι expressed in Sf21 insect cells is also commercially available
test: PKCι IC50 IMAP assay, full-length PKCι at 150 μM ATP
condition: read-out: IC50 in IMAP assay against full length PKCi at 150 μM ATP
pIC50: −log10 of the molar value.
reported_property: pIC50

| compound | test_value |
| --- | --- |
| COc1cncc2nc(-c3ccnc(Nc4ccccc4)c3)nc(N3CCN(CCO)CC3)c12 | 6.00 to 7.00 |
| c1ccc(C2CN(c3nc(-c4ccncc4)nc4cnccc34)CCN2)cc1 (stereo not shown) | 4.40 to 5.00 |
| COc1cccc(Nc2cc(-c3nc(N4CCNCC4)c4c(C5CC5)cncc4n3)ccn2)c1F | > 7.00 |
| Cc1cc2c(-c3nc(N4CCNCC4)c4c(C5CC5)cncc4n3)ccnc2[nH]1 | > 7.00 |
| N#Cc1ccnc(Nc2cc(-c3nc(N4CCN5C(=O)OCC5C4)c4c(C5CC5)cncc4n3)ccn2)c1 (stereo not shown) | 6.00 to 7.00 |
| CC1(Nc2nc(-c3ccnc(Nc4ncc(F)cc4F)c3)nc3cncc(C4CC4)c23)CCNCC1 | > 7.00 |
| c1ccc2c(c1)CC[C@H]2Nc1cc(-c2nc(N3CCNCC3)c3c(C4CC4)cncc3n2)ccn1 | > 7.00 |
| N[C@H](CNc1nc(-c2ccncc2)nc2c(-c3cccc(-c4ccn[nH]4)c3)nccc12)Cc1ccccc1 | 5.00 to 6.00 |
| OC[C@H](Nc1cc(-c2nc(N3CCNCC3)c3c(C4CC4)cncc3n2)ccn1)c1ccccc1 | 6.00 to 7.00 |
| COc1ccc(CC(=O)Nc2cc(-c3nc(N4CCNCC4)c4c(OC)cncc4n3)ccn2)cc1 | > 7.00 |
| CNC(=O)C1CCCN(c2nc(-c3ccnc(Nc4c(F)cccc4F)c3)nc3cncc(C4CC4)c23)C1 (stereo not shown) | 4.40 to 5.00 |
| Fc1cnc(Nc2c(F)cccc2F)cc1-c1nc(N2CCNCC2)c2c(C3CC3)cncc2n1 | > 7.00 |
| Fc1ccc(Nc2cc(-c3nc(N4CCNCC4)c4c(C5CC5)cncc4n3)ccn2)nc1 | > 7.00 |
| COc1cncc2nc(-c3ccnc(Nc4cccc(F)n4)c3)nc(N3CCNCC3)c12 | > 7.00 |
| COc1ccc(Nc2cc(-c3nc(N4CCNCC4)c4c(C5CC5)cncc4n3)ccn2)cn1 | > 7.00 |
| c1ccc(CC2CN(c3nc(N[C@@H]4CCNC4)c4ccncc4n3)CCO2)cc1 (stereo partly shown) | 5.00 to 6.00 |

----------
experimental_target: full-length human PKCι (Homo sapiens, UniProt P41743)
Construct: Recombinant, full-length human PKCι expressed in Sf21 insect cells is also commercially available
Sequence (P41743 1-596): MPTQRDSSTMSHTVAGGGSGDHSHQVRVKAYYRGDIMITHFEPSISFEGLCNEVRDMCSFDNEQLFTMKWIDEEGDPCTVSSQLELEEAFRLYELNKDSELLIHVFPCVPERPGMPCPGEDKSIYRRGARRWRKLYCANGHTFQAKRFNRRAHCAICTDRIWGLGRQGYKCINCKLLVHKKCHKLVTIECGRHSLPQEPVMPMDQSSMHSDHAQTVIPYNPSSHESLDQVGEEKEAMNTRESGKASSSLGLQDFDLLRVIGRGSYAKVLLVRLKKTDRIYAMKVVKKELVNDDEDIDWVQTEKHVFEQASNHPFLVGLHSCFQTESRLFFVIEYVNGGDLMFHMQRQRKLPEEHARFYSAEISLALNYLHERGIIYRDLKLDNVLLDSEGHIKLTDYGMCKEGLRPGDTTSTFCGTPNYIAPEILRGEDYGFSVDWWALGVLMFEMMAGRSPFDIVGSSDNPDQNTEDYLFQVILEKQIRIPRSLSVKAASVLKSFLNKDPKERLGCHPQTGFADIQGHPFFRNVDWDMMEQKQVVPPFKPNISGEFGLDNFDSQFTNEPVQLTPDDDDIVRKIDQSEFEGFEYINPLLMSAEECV
test: PKCι IC50 IMAP assay, full-length PKCι at 150 μM ATP
condition: read-out: IC50 in IMAP assay against full length PKCi at 150 μM ATP
pIC50: −log10 of the molar value.
As shown below, each of these compounds has a reported pIC50 value.

| compound | pIC50 |
| --- | --- |
| c1cc2c(N[C@@H]3CCNC3)nc(N3CCOCC3)nc2cn1 [Example 1011] | 5.00 to 6.00 |
| CS(=O)(=O)CCN1CCN(c2nc(-c3ccnc(Nc4ccccc4)c3)nc3cncc(C4CC4)c23)CC1 [Example 663] | 6.00 to 7.00 |
| COc1cncc2nc(-c3ccnc(Nc4cccc(CC(N)=O)c4)c3)nc(N[C@@H]3CCNC3)c12 [Example 324] | > 7.00 |
| CN1CCN(c2cccc(Nc3cc(-c4nc(N5CCN(C(N)=O)CC5)c5c(C6CC6)cncc5n4)ccn3)c2)CC1 [Example 687] | 6.00 to 7.00 |
| CN(c1nc(-c2ccnc(Nc3ncc(F)cc3F)c2)nc2cncc(C3CCC3)c12)C1CCNCC1 [Example 2157] | > 7.00 |
| c1cc(-c2nc(N3CCNCC3)c3c(C4CC4)cncc3n2)cc(NC2CCOCC2)n1 [Example 283] | > 7.00 |
| CN1Cc2ccc(Nc3cc(-c4nc(N5CCC(O)CC5)c5c(C6CC6)cncc5n4)ccn3)cc2C1 [Example 821] | > 7.00 |
| COc1cncc2nc(-c3ccncc3)nc(N3CCNCC3)c12 [Example 31] | 6.00 to 7.00 |
